system: COLO 205 colon; assay: NCI-60 one-dose screen, 48 h (100 = growth as untreated, 0 = no growth, -100 = all killed); conditions: 10 µM unless noted
This is part of a sample that, as a whole, favours compounds with a hit. Of some 83,000 tested, about 20% had one in any assay.
measurement_name: growth (%)

>>> endpoint_value("CCc1ccc2nc(NC(=O)Cc3csc(NC(=O)c4ccco4)n3)sc2c1")
107
>>> endpoint_value("C/C(=C(/c1ccccc1)c1ccc(N2C(=O)c3cccc4c(N5CCN(C)CC5)ccc(c34)C2=O)cc1)c1ccccc1")
81.1
>>> endpoint_value("O=C(/C=C/c1sc(Cl)nc1Cl)c1ccccc1")
87.4
>>> endpoint_value("O=C(Cc1ccc2c(c1)OCCO2)Nc1nc2ccc(F)cc2s1")
124
>>> endpoint_value("C#C[C@]1(O)CC[C@H]2[C@@H]3CC=C4c5sc(Nc6cc(F)ccc6F)nc5CC[C@]4(C)[C@H]3CC[C@@]21C")
8.29
>>> endpoint_value("c1cc(-c2nnc(SSc3ncnc4nc[nH]c34)o2)ccn1")
67.7
>>> endpoint_value("COc1ccc(/C=N/Nc2cc(=O)[nH]c3ccc(C)cc23)cc1")
106
>>> endpoint_value("CCc1cccc2c3c(sc12)C(c1ccc(Cl)cc1)C(C#N)=C(N)O3 (stereo unspecified)")
9.3
>>> endpoint_value("CCN(CC)CCNc1nc2ccccc2c2c(=O)c3cc(Cl)ccc3sc12")
64.2
>>> endpoint_value("CSc1ncccc1C(=O)OCC(=O)Nc1oc(C)c2c(C)n[nH]c(=O)c12")
122
>>> endpoint_value("CN(C)CC#Cc1ccc2ncc(C#N)c(Nc3ccc(F)c(Cl)c3)c2c1")
71.3
>>> endpoint_value("CC1(C)C2CC1C1(/C=N\\Nc3ccccc3)C(C2)C(C#N)(C#N)C1(C#N)C#N (stereo unspecified)")
115
>>> endpoint_value("O=C(N/N=C/c1ccc(Cl)cc1)c1ccc(C(F)(F)F)nc1Nc1cccc(C(F)(F)F)c1")
-12.6
>>> endpoint_value("COc1ccc2[nH]c(-c3ccccc3)c(/C=C(\\C#N)S(=O)(=O)c3ccccc3)c2c1")
46.6
>>> endpoint_value("NCCCNc1nc2ccccc2c2c(=O)c3cccc(F)c3sc12")
-43.7
>>> endpoint_value("CN(C)CCS(=O)(=O)Nc1cc(-c2ccc3ncc(C#N)c(Nc4ccc(F)c(Cl)c4)c3c2)cnc1Cl")
-80.8
>>> endpoint_value("CCc1cccc2c1S/C(=C/c1ccc(OC)cc1)C2=O")
105
>>> endpoint_value("CC1(C)C2CC1C1(/C=N/NC(N)=S)C(C2)C(C#N)(C#N)C1(C#N)C#N (stereo unspecified)")
65.4
>>> endpoint_value("BrCCCc1n(Cc2ccc3ccccc3c2)c2ccccc2[n+]1Cc1ccc2ccccc2c1")
-61.2
>>> endpoint_value("O=c1c2cc(F)ccc2sc2c(N3CCNCC3)nc3ccc(F)cc3c12")
-51.9
>>> endpoint_value("NC1=NC(c2cccc(Br)c2)c2sc3ccc(Cl)cc3c2N1 (stereo unspecified)")
100

----------
System: KM12 colon
Experiment: NCI-60 one-dose screen, 48 h
Conditions: 10 µM unless noted
Experimental: Growth inhibition of the KM12 human tumor cell line is measured as a screen for anti-cancer activity. Cells are grown in 96 well plates and exposed to the test compound for 48 hours. Compounds are tested at a single concentration, which is 10^-5 M for most compounds. The reported endpoint is percent growth (GI% or GIPRCNT), where numbers from 0 - 100% represent growth inhibition, and numbers from -100% - 0 represent cell death. For example, a value of 40 represents 60% growth inhibition. […]
About 83,000 compounds went through this panel and 20% of them were active in at least one assay; those are over-represented in the sample as a whole. Activity calls are given as the source filed them. The calls were made as follows: active = growth percent below 10; inactive = the rest.
Classes used: active, inactive

>>> class_label("CCOC(=O)c1sc2ncc(-c3ccc(C)cc3)n2c1C")
"inactive"
>>> class_label("CCOC(=O)C1=C(N)Oc2c(sc3c(C)cccc23)C1c1ccc(F)cc1 (centres undefined)")
"active"
>>> class_label("CCc1ccccc1-n1c(N)c(C#N)c(-c2ccc(Cl)cc2)c(C#N)c1=O")
"inactive"
>>> class_label("COC(=O)CCC/C=C\\C[C@H]1C=CC(=O)/C1=C/C[C@@H](O)CCc1cccc(C(F)(F)F)c1")
"active"
>>> class_label("Cc1oc2nc[nH]c(=O)c2c1C(=O)/C=C/c1ccc(Br)cc1")
"active"
>>> class_label("[O-][n+]1c2ccccc2[n+]([O-])c2c3ccccc3[nH]c21")
"inactive"
>>> class_label("CC1=C(SCCC(=O)OC(C[Se]C2=C(C)C(=O)c3ccccc3C2=O)C(=O)NC(C)(C)C)C(=O)c2ccccc2C1=O (centres undefined)")
"active"
>>> class_label("COc1cc(C(=O)N/N=C/c2cc3cc(OCc4ccccc4)ccc3nc2OC)cc(OC)c1OC")
"inactive"
>>> class_label("Cc1nc2ccccc2c(/C=C/c2ccc(Cl)cc2)c1C(=O)/C=C/c1ccc(C(F)(F)F)cc1")
"active"

----------
test system: SF-295 CNS; assay: NCI-60 one-dose screen, 48 h (100 = growth as untreated, 0 = no growth, -100 = all killed); conditions: 10 µM unless noted
Compounds without any hit were thinned out: in the full panel of roughly 83,000, 20% have a hit.
// classify: if (growth < 80%) 1 else 0

>>> class_label("CCC(C)(c1cc(C(C)(C)C)c(O)c(C(C)(C)C)c1)c1cc(C(C)(C)C)c(O)c(C(C)(C)C)c1")
0
>>> class_label("CCCCCCN(CCCCCC)c1ccc(/C=C2/SC(=O)NC2=O)c(C)c1")
1
>>> class_label("COc1cccc(-c2nn(-c3ccccc3)cc2-c2ccnc(N3CCOCC3)c2)c1")
0
>>> class_label("Cc1ccc(S(=O)(=O)Oc2ccc(NC(=O)c3ccc(Cl)cc3)cc2)cc1")
0
>>> class_label("COc1cc(C(=O)N/N=C/c2cc3cc(OCc4ccccc4)ccc3nc2OC)cc(OC)c1OC")
0
>>> class_label("COc1ccc2nc(NC(=O)c3cccnc3Nc3ccc(S(N)(=O)=O)cc3)sc2c1")
0
>>> class_label("Cc1nn(-c2ccccc2)c(-n2ccnc2)c1/C=N/Nc1nc(-c2ccc(F)cc2)cs1")
1
>>> class_label("COc1cc2cc(Oc3ccc(NC(=O)Nc4cc(C(F)(F)F)cc(C(F)(F)F)c4)cc3)c(C)nc2cc1OCCN1CCOCC1")
1

----------
test system: IGROV1 ovarian; assay: NCI-60 one-dose screen, 48 h (100 = growth as untreated, 0 = no growth, -100 = all killed); conditions: 10 µM unless noted
This is part of a sample that, as a whole, favours compounds with a hit. Of some 83,000 tested, about 20% had one in any assay. The source made the active and inactive calls. How the source made its calls: active means growth percent below 10; inactive means the rest.
measurement_name: growth

>>> endpoint_value("COc1ccc2sc3c(NCCO)nc4ccccc4c3c(=O)c2c1")
"113% (inactive)"
>>> endpoint_value("CCc1cccc2c3c(sc12)C(c1ccc(F)cc1)C(C#N)=C(N)O3 (stereo not given)")
"31.1% (inactive)"
>>> endpoint_value("Cc1oc2nc[nH]c(=O)c2c1C(=O)/C=C/c1ccc(Br)cc1")
"8.79% (active)"
>>> endpoint_value("O=c1ccc(N=Nc2ccccc2)ccc1Cl")
"80.7% (inactive)"
>>> endpoint_value("CN1CCN(CC(=O)N2c3cccc4cccc(c34)N(C(=O)CN3CCN(C)CC3)C2c2cn(-c3ccccc3)nc2-c2cccc([N+](=O)[O-])c2)CC1")
"4.75% (active)"
>>> endpoint_value("NS(=O)(=O)c1ccc(N=Nc2ccc(-c3nn4cc(-c5ccccc5)nc4s3)cc2)cc1")
"117% (inactive)"
>>> endpoint_value("Cn1cc(-c2cc3ncnc(Nc4ccc(CC(=O)Nc5cc(C(C)(C)C)on5)cc4)c3s2)cn1")
"11.1% (inactive)"
>>> endpoint_value("CCOC(=O)NCCc1ccccc1")
"85.3% (inactive)"
>>> endpoint_value("Cc1[nH]c(C(=O)Nc2ccc(C(=O)NCCN)cc2OC(C)C)c(Cl)c1Cl")
"64.1% (inactive)"
>>> endpoint_value("CCCCOc1nc2ccc(OC)cc2cc1-c1cc(-c2ccc(Cl)cc2)nc(-c2ccc(Cl)cc2)c1")
"105% (inactive)"
>>> endpoint_value("CCc1cccc2c1S/C(=C/c1ccc(Cl)cc1)C2=O")
"65.6% (inactive)"
>>> endpoint_value("CN1CCN(c2ccc(-c3cnc4c(-c5csc6ccccc56)cnn4c3)cc2)CC1")
"5.7% (active)"
>>> endpoint_value("C#C[C@]1(O)CC[C@H]2[C@@H]3CC=C4c5sc(Nc6ccccc6)nc5CC[C@]4(C)[C@H]3CC[C@@]21C")
"46.7% (inactive)"
>>> endpoint_value("O=c1[nH]c2c(ccc3cnccc32)c2c1CCC2")
"-71% (active)"
>>> endpoint_value("CCCCNC(=O)Oc1ccc(/C(=C(\\C)c2ccc(Cl)cc2)c2ccc(OCCN(CC)CC)cc2)cc1")
"81.6% (inactive)"
>>> endpoint_value("CN1CCN(c2ccc(-c3cc4c(Nc5ccc(F)c(Cl)c5)ncnn4c3)cc2)CC1")
"49.5% (inactive)"
>>> endpoint_value("O=S(=O)(Nc1ccc(-c2nc(-c3cccc(OCCN4CCOCC4)c3)c(-c3ccnc(Br)c3)[nH]2)cc1)c1ccccc1")
"43.7% (inactive)"
>>> endpoint_value("Cc1ccc2c(n1)C(=O)C(Cl)=C(Nc1ccccc1C(C)C)C2=O")
"63.9% (inactive)"
>>> endpoint_value("COc1ccc(CN2c3ccccc3Sc3ccccc32)c(F)c1")
"50.3% (inactive)"
>>> endpoint_value("CCCCNC(=O)Oc1ccc(/C(=C(\\C)c2ccc(Cl)cc2)c2ccc(OCCN3CCCCC3)cc2)cc1")
"83.5% (inactive)"
